Reference for the values: ChEMBL document CHEMBL1122073

target: Adrenergic receptor alpha-2 (Rattus norvegicus, UniProt P22086+P19328+P22909); test: Antagonistic activity against Alpha-2 adrenergic receptor in the prostatic portion of the rat vas deferens; type: functional, tissue-based
recorded-endpoint: pA2

{"compound": "NCC1(c2ccccc2)OCCO1", "measured-value": 5.5}
{"compound": "Clc1cccc(Cl)c1Cn1ccnc1CC1COc2ccccc2O1 (stereo not drawn)", "measured-value": 6}
{"compound": "CC(C)n1ccnc1CC1COc2ccccc2O1 (stereo not drawn)", "measured-value": 6.56}
{"compound": "Cl.N=C(N)CC1COc2ccccc2O1 (stereo not drawn)", "measured-value": 5.4}
{"compound": "COc1cccc(Cn2ccnc2CC2COc3ccccc3O2)c1.Cl (stereo not drawn)", "measured-value": 6.58}
{"compound": "CCn1ccnc1CC1COc2ccccc2O1.Cl (stereo not drawn) [IMILOXAN HYDROCHLORIDE]", "measured-value": 6.71}
{"compound": "CCCCn1ccnc1CC1COc2ccccc2O1.Cl (stereo not drawn)", "measured-value": 6.84}
{"compound": "Cl.c1ccc(Cn2ccnc2CC2COc3ccccc3O2)cc1 (stereo not drawn)", "measured-value": 6.84}
{"compound": "c1ccc2c(c1)OCC(CN1CCCCC1)O2 (stereo not drawn) [PIPEROXAN]", "measured-value": 7.4}
{"compound": "Cl.c1ccc2c(c1)OCC(c1ncc[nH]1)O2 (stereo not drawn)", "measured-value": 5.6}
{"compound": "CCN1CCN=C1CC1COc2ccccc2O1.Cl (stereo not drawn)", "measured-value": 6.7}
{"compound": "Cl.c1ccc2c(c1)OCC(CC1=NCCN1)O2 (stereo not drawn)", "measured-value": 7}
{"compound": "Cl.c1ccc(-c2c[nH]c(CC3COc4ccccc4O3)n2)cc1 (stereo not drawn)", "measured-value": 5.51}

----------
biological target: Adrenergic receptor alpha (Rattus norvegicus) (UniProt P15823+P23944+P43140+P22086+P19328+P22909); assay: Selectivity ratio is the […] of alfa2 and alfa1 adrenoceptors; format: protein assay
recorded-endpoint: Selectivity ratio

{"compound": "Cl.c1ccc2c(c1)OCC(CCc1ncc[nH]1)O2 (stereo not drawn)", "recorded-endpoint": "Selectivity ratio", "measured-value": 102}
{"compound": "Cl.Cn1ccnc1CC1COc2ccccc2O1 (stereo not drawn)", "recorded-endpoint": "Selectivity ratio", "measured-value": 74.1}
{"compound": "CCN1CCN=C1CC1COc2ccccc2O1.Cl (stereo not drawn)", "recorded-endpoint": "Selectivity ratio", "measured-value": 50.1}

1. Cl.c1ccc(Cn2ccnc2CC2COc3ccccc3O2)cc1 (stereo not drawn)
2. COc1cccc(Cn2ccnc2CC2COc3ccccc3O2)c1.Cl (stereo not drawn)
3. Cl.c1ccc2c(c1)OCC(CC1=NCCN1)O2 (stereo not drawn)
4. CC(C)n1ccnc1CC1COc2ccccc2O1 (stereo not drawn)
Which order do these items take when sorted by rising Selectivity ratio? List them. A complete answer lists every label in the requested sequence. 2, 1, 3, 4

----------
assay: Tested for the 1-Octanol distribution coefficient determined by HPLC method (pH 7.4); assay type: physicochemical; conditions: 1-octanol/aqueous phase
recorded-endpoint: logD

{"compound": "c1ccc2c(c1)OCC(Cc1ncc[nH]1)O2 (stereo not given)", "logD": 1.92}
{"compound": "CCn1ccnc1CC1COc2ccccc2O1.Cl (stereo not given) [IMILOXAN HYDROCHLORIDE]", "logD": 2.31}
{"compound": "Cl.Cn1ccnc1CC1COc2ccccc2O1 (stereo not given)", "logD": 1.93}
{"compound": "Cl.c1ccc2c(c1)OCC(c1ncc[nH]1)O2 (stereo not given)", "logD": 1.76}

----------
test: Tested for the 1-Octanol distribution coefficient determined by HPLC method (pH 7.4); format: physicochemical; conditions: 1-octanol/aqueous phase
Counter-ions that a name gives are not always drawn.
recorded-endpoint: logD

{"molecule": "Cl.c1ccc2c(c1)OCC(CCc1ncc[nH]1)O2 (centres undefined)", "recorded-endpoint": "logD", "measured-value": 1.99}
{"molecule": "c1ccc2c(c1)OCC(C1=NCCN1)O2 (centres undefined) [IDAZOXAN HYDROCHLORIDE]", "recorded-endpoint": "logD", "measured-value": 0.33}
{"molecule": "CCCn1ccnc1CC1COc2ccccc2O1 (centres undefined)", "recorded-endpoint": "logD", "measured-value": 2.4}

----------
biological target: Adrenergic receptor alpha-1 (Rattus norvegicus, UniProt P15823+P23944+P43140); experiment: Antagonistic activity against Alpha-1 adrenergic receptor in the epididymal portion of the rat vas deferens; format: functional, tissue-based
recorded-endpoint: pA2

{"molecule": "CCn1ccnc1CC1COc2ccccc2O1.Cl (configuration not stated) [IMILOXAN HYDROCHLORIDE]", "target-entity": "Adrenergic receptor alpha-1 (Rattus norvegicus, UniProt P15823+P23944+P43140)", "pA2": "< 4"}
{"molecule": "Cl.N=C(N)CC1COc2ccccc2O1 (configuration not stated)", "target-entity": "Adrenergic receptor alpha-1 (Rattus norvegicus, UniProt P15823+P23944+P43140)", "pA2": "< 5"}
{"molecule": "Cl.c1ccc(-c2c[nH]c(CC3COc4ccccc4O3)n2)cc1 (configuration not stated)", "target-entity": "Adrenergic receptor alpha-1 (Rattus norvegicus, UniProt P15823+P23944+P43140)", "pA2": "< 5"}

Which pA2 is listed for CCCCn1ccnc1CC1COc2ccccc2O1.Cl (configuration not stated) ? < 4.5

Also NCC1(c2ccccc2)OCCO1 ? < 5

Also Clc1cccc(Cl)c1Cn1ccnc1CC1COc2ccccc2O1 (configuration not stated) ? < 5

Also Cl.c1ccc2c(c1)OCC(c1ncc[nH]1)O2 (configuration not stated) ? < 4

----------
biological target: Adrenergic receptor alpha (Rattus norvegicus) (UniProt P15823+P23944+P43140+P22086+P19328+P22909); experiment: Selectivity ratio is the […] of alfa2 and alfa1 adrenoceptors; format: protein assay
recorded-endpoint: Selectivity ratio

{"compound": "Clc1cccc(Cl)c1Cn1ccnc1CC1COc2ccccc2O1 (stereo unspecified)", "measured-value": "> 10"}
{"compound": "Cl.N=C(N)CC1COc2ccccc2O1 (stereo unspecified)", "measured-value": "> 2.5"}
{"compound": "CCCCn1ccnc1CC1COc2ccccc2O1.Cl (stereo unspecified)", "measured-value": "> 219"}
{"compound": "NCC1(c2ccccc2)OCCO1", "measured-value": "> 3.2"}
{"compound": "Cl.c1ccc(-c2c[nH]c(CC3COc4ccccc4O3)n2)cc1 (stereo unspecified)", "measured-value": "> 3.2"}

Query compound follows.
Which Selectivity ratio is listed for Cl.c1ccc2c(c1)OCC(c1ncc[nH]1)O2 (stereo unspecified) ? > 39.8
